Entries annotated with measured TGI
System: SR leukemia
protocol.details: NCI tumour cell line growth inhibition, 48 h

Use the examples below as a reference point.
C#C[C@@]1(O)[C@@H](CO)O[C@@H](n2cc(Cl)c3c(N)ncnc32)[C@@H]1O
> 100 µM
CC(=O)OCc1nc(C#N)c(N)o1
> 100 µM
c1cncc(C2c3[nH]c4ccccc4c3CCN2CCCN2CCCCC2)c1 (stereo unspecified)
> 100 µM
CN1CCN(C(=O)c2ccc(NC(=O)Nc3ccc(N(C)c4ccnc(Nc5ccc(CS(C)(=O)=O)cc5)n4)cc3)cc2)CC1
> 25 µM
CCOC(=O)/C(C#N)=C(/NS(=O)(=O)c1cc(C)c(Cl)cc1[S-])[n+]1ccc(N(C)C)cc1
> 100 µM

Q: So what does the record say about TGI for CCN1C(C)=NC2C(=O)c3ccccc3C(=O)C21 (stereo unspecified) ?
Result: > 100 µM

Q: So what does the record say about TGI for Cc1nc(Nc2nnc(-c3cc([N+](=O)[O-])cc([N+](=O)[O-])c3C)o2)sc1C(=O)CC(=O)Cc1nc2ccc(Cl)cc2[nH]c1=O ?
Result: > 100 µM

Q: So what does the record say about TGI for COc1ccc(-c2coc3ncnc(N)c23)cc1 ?
Result: > 25 µM

Q: So what does the record say about TGI for C=C1C(=O)O[C@@H]2[C@H]1CC[C@H](C)[C@]1(O)CCC(=O)[C@@]21C ?
Result: > 10 µM

Q: So what does the record say about TGI for CC1=CC2=C(OCO1)C(=O)c1ccccc1C2=O ?
Result: 41.7 µM

Q: So what does the record say about TGI for COc1cc2c(c(OC)c1OC)-c1ccc(OC)c(=O)cc1[C@@H](NC(=O)CCl)CC2 ?
Result: > 95.7 µM

Q: So what does the record say about TGI for C/C(=N\O)c1sc(-n2nc(-c3ccccc3)cc2-c2ccccc2)nc1C ?
Result: 28.6 µM

Q: So what does the record say about TGI for CC(C)[Si](OC12CCC(CC1O)CC2C(=O)O)(C(C)C)C(C)C (stereo unspecified) ?
Result: > 100 µM

Q: So what does the record say about TGI for CCC1CCc2nc3sc(C(=O)Nc4ccccc4F)c(N)c3cc2C1 (stereo unspecified) ?
Result: 38.1 µM

---

Tested on: SK-OV-3 ovarian
protocol.details: NCI tumour cell line growth inhibition, 48 h
Entries annotated with measured TGI

COc1cccc2c1C(=O)C(=O)c1c-2oc(=O)c2cc(C)cc(OC)c12
> 75 µM
CCC[CH2][Sn]1([CH2]CCC)[O]C(c2ccccn2)S(=O)(=O)[O]1 (stereo not drawn)
30.9 µM

Q: So what does the record say about TGI for O=C(O)C(Cc1cccs1)NC(=O)C(F)(F)F (stereo not drawn) ?
Result: > 100 µM

---

Entries annotated with measured TGI
Tested on: SF-295 CNS
protocol.details: NCI tumour cell line growth inhibition, 48 h
Give just the number in µM; leave the unit off.

Use the examples below as a reference point.
O=c1c(O)c(-c2ccc(O)c(O)c2)oc2cc(O)ccc12
54.4
COC1Cc2c(C)c(OC(C)=O)c3cccnc3c2O1 (stereo not given)
93.3
CCCCCCCCCOC(=S)NC
67.5

Q: So what does the record say about TGI for Cc1nc(NC(=S)NC(=O)c2ccc(Cl)c(Cl)c2)sc1C(=O)/C=C/c1ccccc1[N+](=O)[O-] ?
Result: 58.9

Q: So what does the record say about TGI for CCOC(=O)c1sc2nc(SC)nc(Nc3ccc4c(c3)OCCCO4)c2c1N ?
Result: 53.9

Q: So what does the record say about TGI for N=c1nc(N)c2cc3c(N)nc(=N)c3cc12 ?
Result: 51

Values from PubChem BioAssay (NCI)
